- System: Streptococcus pneumoniae 1175
- Assay type: cell-based
- test parameters: Streptococcus pneumoniae 1175; microtiter broth dilution
Catalogue of MIC S. pneumo. 1175 readings, one per entry.

{"molecule": "CCC1OC(=O)C(C)C(=O)C(C)C(OC2OC(C)CC(N(C)C)C2O)C(C)(OC)CC(C)C(=O)C(C)C2N(C3CN(S(=O)(=O)c4ccc5ncsc5c4)C3)C(=O)OC12C (stereo not drawn) [Example 3.79]", "value reported": "<0.06 µg/mL"}

Prompt: Please indicate MIC S. pneumo. 1175 recorded for CCC1OC(=O)C(C)C(=O)C(C)C(OC2OC(C)CC(N(C)C)C2O)C(C)(OC)CC(C)C(=O)C(C)C2N(C3CN(S(=O)(=O)c4ccc5cn[nH]c5c4)C3)C(=O)OC12C (stereo not drawn) [Example 3.85]
Completion: <0.06 µg/mL

Prompt: Please indicate MIC S. pneumo. 1175 recorded for CCC1OC(=O)C(C)C(=O)C(C)C(OC2OC(C)CC(N(C)C)C2O)C(C)(OC)CC(C)C(=O)C(C)C2N(C3CN(C(c4ccccc4)c4cccnc4)C3)C(=O)OC12C (single isomer, unassigned) [Example 1.67, phenyl-(pyridin-3-yl)methyl (*)]
Completion: <0.06 µg/mL

====

Catalogue of MIC S. pneumo. 1175 readings, one per entry.
- Test system: Streptococcus pneumoniae 1175
- Type: cell-based
- test parameters: Streptococcus pneumoniae 1175; microtiter broth dilution

Worked cases, answers included:
{"molecule": "CCC1OC(=O)C(C)C(=O)C(C)C(OC2OC(C)CC(N(C)C)C2O)C(C)(OC)CC(C)C(=O)C(C)C2N(C3CN(Cc4ccncc4Cl)C3)C(=O)OC12C (stereo not drawn)", "value reported": "<0.063 µg/mL"}
{"molecule": "CCC1OC(=O)C(C)C(=O)C(C)C(OC2OC(C)CC(N(C)C)C2O)C(C)(OC)CC(C)C(=O)C(C)C2N(C3CN(S(=O)(=O)c4cncc(-c5cnco5)c4)C3)C(=O)OC12C (stereo not drawn)", "value reported": "<0.06 µg/mL"}

Next up:
Prompt: Please indicate MIC S. pneumo. 1175 recorded for CCC1OC(=O)C(C)C(=O)C(C)C(OC2OC(C)CC(N(C)C)C2O)C(C)(OC)CC(C)C(=O)C(C)C2N(C3CN(C(=O)Nc4ccc5ccccc5c4)C3)C(=O)OC12C (stereo not drawn)
Completion: <0.06 µg/mL

====

Catalogue of MIC S. pneumo. 1175 readings, one per entry.
- System: Streptococcus pneumoniae 1175
- Type: cell-based
- test parameters: Streptococcus pneumoniae 1175; microtiter broth dilution

{"compound": "CCC1OC(=O)C(C)C(=O)C(C)C(OC2OC(C)CC(N(C)C)C2O)C(C)(OC)CC(C)C(=O)C(C)C2N(CC3CN(Cc4cccc5cccnc45)C3)C(=O)OC12C.O=CO (centres unmarked)", "observation type": "MIC S. pneumo. 1175", "value reported": "<0.06 µg/mL"}
{"compound": "CCC1OC(=O)C(C)C(=O)C(C)C(OC2OC(C)CC(N(C)C)C2O)C(C)(OC)CC(C)C(=O)C(C)C2N(C3CN(Cc4ccncc4Br)C3)C(=O)OC12C (centres unmarked)", "observation type": "MIC S. pneumo. 1175", "value reported": "<0.063 µg/mL"}
{"compound": "CCC1OC(=O)C(C)C(=O)C(C)C(OC2OC(C)CC(N(C)C)C2O)C(C)(OC)CC(C)C(=O)C(C)C2N(C3CN(S(=O)(=O)c4cnc5ccccn45)C3)C(=O)OC12C (centres unmarked)", "observation type": "MIC S. pneumo. 1175", "value reported": "<0.06 µg/mL"}
{"compound": "CCC1OC(=O)C(C)C(=O)C(C)C(OC2OC(C)CC(N(C)C)C2O)C(C)(OC)CC(C)C(=O)C(C)C2N(CC3CN(Cc4ccc5ccccc5c4)C3)C(=O)OC12C (centres unmarked)", "observation type": "MIC S. pneumo. 1175", "value reported": "<0.06 µg/mL"}

Prompt: Please indicate MIC S. pneumo. 1175 recorded for CCC1OC(=O)C(C)C(=O)C(C)C(OC2OC(C)CC(N(C)C)C2O)C(C)(OC)CC(C)C(=O)C(C)C2N(CC3CN(Cc4ccc5cnccn45)C3)C(=O)OC12C (centres unmarked)
Completion: <0.06 µg/mL

====

- Tested on: Haemophilus influenzae 1218
- protocol notes: MIC, microtiter broth dilution (NCCLS M100-S14), H. influenzae 1218 (susceptible)
- Assay type: cell-based
- test parameters: Haemophilus influenzae 1218
Catalogue of MIC H. influenzae 1218 readings, one per entry.
Numbers only here, please. The scale is µg/mL.

{"compound": "CCC1OC(=O)C(C)C(=O)C(C)C(OC2OC(C)CC(N(C)C)C2O)C(C)(OC)CC(C)C(=O)C(C)C2N(CC3CN(Cc4ccn(-c5cccnc5)n4)C3)C(=O)OC12C.O=CO (stereo not drawn) [4.30]", "MIC H. influenzae 1218, µg/mL": 0.5}

Prompt: Please indicate MIC H. influenzae 1218 recorded for CCC1OC(=O)C(C)C(=O)C(C)C(OC2OC(C)CC(N(C)C)C2O)C(C)(OC)CC(C)C(=O)C(C)C2N(CC3CN(Cc4cccnc4)C3)C(=O)OC12C (stereo not drawn) [4.04]
Completion: 0.5

Prompt: Please indicate MIC H. influenzae 1218 recorded for CCC1OC(=O)C(C)C(=O)C(C)C(OC2OC(C)CC(N(C)C)C2O)C(C)(OC)CC(C)C(=O)C(C)C2N(C3CN(S(=O)(=O)c4cc(Cl)ccc4OC)C3)C(=O)OC12C (stereo not drawn) [Example 3.106]
Completion: 0.5

====

Catalogue of MIC H. influenzae 1218 readings, one per entry.
- Tested on: Haemophilus influenzae 1218
- protocol notes: MIC, microtiter broth dilution (NCCLS M100-S14), H. influenzae 1218 (susceptible)
- Type: cell-based
- test parameters: Haemophilus influenzae 1218
- Description: The assay described herein includes a panel of bacterial strains assembled to include a variety of target pathogenic species, including representatives of macrolide resistance mechanisms that have been characterized. In many cases, both the macrolide-susceptible parent strain and the macrolide-resistant strain derived from it are available to provide a more accurate assessment of the compound's ability to circumvent the resistance mechanism. […]
Units required after the number.

Worked cases, answers included:
{"compound": "CCC1OC(=O)C(C)C(=O)C(C)C(OC2OC(C)CC(N(C)C)C2O)C(C)(OC)CC(C)C(=O)C(C)C2N(CC3CN(C(=O)c4cccc5ncoc45)C3)C(=O)OC12C.O=CO (stereo not drawn)", "target or system": "Haemophilus influenzae 1218", "observation type": "MIC H. influenzae 1218", "value reported": "1 µg/mL"}
{"compound": "CCOc1ccc(S(=O)(=O)N2CC(N3C(=O)OC4(C)C(CC)OC(=O)C(C)C(=O)C(C)C(OC5OC(C)CC(N(C)C)C5O)C(C)(OC)CC(C)C(=O)C(C)C34)C2)c2cccnc12 (stereo not drawn)", "target or system": "Haemophilus influenzae 1218", "observation type": "MIC H. influenzae 1218", "value reported": "1 µg/mL"}

Next up:
Prompt: Please indicate MIC H. influenzae 1218 recorded for CCCC(c1ccnc2ccccc12)N1CC(N2C(=O)OC3(C)C(CC)OC(=O)C(C)C(=O)C(C)C(OC4OC(C)CC(N(C)C)C4O)C(C)(OC)CC(C)C(=O)C(C)C23)C1 (stereo not drawn) [Example 1.64]
Completion: 1 µg/mL

====

- Tested on: Haemophilus influenzae 1218
- protocol notes: MIC, microtiter broth dilution (NCCLS M100-S14), H. influenzae 1218 (susceptible)
- Assay type: cell-based
- test parameters: Haemophilus influenzae 1218
Catalogue of MIC H. influenzae 1218 readings, one per entry.

Worked cases, answers included:
{"molecule": "CCC1OC(=O)C(C)C(=O)C(C)C(OC2OC(C)CC(N(C)C)C2O)C(C)(OC)CC(C)C(=O)C(C)C2N(C3CN(S(=O)(=O)c4cccc5nonc45)C3)C(=O)OC12C (stereo not drawn)", "value reported": "0.25 mg/L"}
{"molecule": "CCC1OC(=O)C(C)C(=O)C(C)C(OC2OC(C)CC(N(C)C)C2O)C(C)(OC)CC(C)C(=O)C(C)C2N(C3CN(S(=O)(=O)c4ccc(-n5ccnc5)c(F)c4)C3)C(=O)OC12C (stereo not drawn)", "value reported": "1 mg/L"}
{"molecule": "CCC1OC(=O)C(C)C(=O)C(C)C(OC2OC(C)CC(N(C)C)C2O)C(C)(OC)CC(C)C(=O)C(C)C2N(C3CN(S(=O)(=O)c4ccc5[nH]ncc5c4)C3)C(=O)OC12C (stereo not drawn)", "value reported": "0.19 mg/L"}
{"molecule": "CCC1OC(=O)C(C)C(=O)C(C)C(OC2OC(C)CC(N(C)C)C2O)C(C)(OC)CC(C)C(=O)C(C)C2N(C3CN(S(=O)(=O)c4ccc(-c5ccc(Cl)nn5)cc4)C3)C(=O)OC12C (stereo not drawn)", "value reported": "4 mg/L"}
{"molecule": "CCC1OC(=O)C(C)C(=O)C(C)C(OC2OC(C)CC(N(C)C)C2O)C(C)(OC)CC(C)C(=O)C(C)C2N(C3CN(S(=O)(=O)c4cncc(-n5cccn5)c4)C3)C(=O)OC12C (stereo not drawn)", "value reported": ">64.00 mg/L"}

Prompt: Please indicate MIC H. influenzae 1218 recorded for CCC1OC(=O)C(C)C(=O)C(C)C(OC2OC(C)CC(N(C)C)C2O)C(C)(OC)CC(C)C(=O)C(C)C2N(C3CN(S(=O)(=O)c4ccc(-c5csnn5)cc4)C3)C(=O)OC12C (stereo not drawn)
Completion: 0.25 mg/L

Prompt: Please indicate MIC H. influenzae 1218 recorded for CCC1OC(=O)C(C)C(=O)C(C)C(OC2OC(C)CC(N(C)C)C2O)C(C)(OC)CC(C)C(=O)C(C)C2N(C3CN(C(=O)c4ccc(-n5ccnc5)cc4)C3)C(=O)OC12C (stereo not drawn)
Completion: 4 mg/L

Prompt: Please indicate MIC H. influenzae 1218 recorded for CCC1OC(=O)C(C)C(=O)C(C)C(OC2OC(C)CC(N(C)C)C2O)C(C)(OC)CC(C)C(=O)C(C)C2N(C3CN(Cc4ccc(-n5cccn5)nc4)C3)C(=O)OC12C (stereo not drawn)
Completion: 4 mg/L

Prompt: Please indicate MIC H. influenzae 1218 recorded for CCC1OC(=O)C(C)C(=O)C(C)C(OC2OC(C)CC(N(C)C)C2O)C(C)(OC)CC(C)C(=O)C(C)C2N(C3CN(C(COC)c4ccnc5ncccc45)C3)C(=O)OC12C (stereo not drawn)
Completion: 4 mg/L
